tested on: HCT-15

{"compound": "COc1cc(C(C#N)NNc2nc(C)cc(O)n2)cc(OC)c1OC (configuration not stated)", "tgt": "HCT-15", "GI50": "> 100 µM"}
{"compound": "O=P(O)(O)CCP(=O)(O)O", "tgt": "HCT-15", "GI50": "> 100 µM"}
{"compound": "CCN(CC)CCOc1ccc(/C=C(\\C#N)c2ccc(OCCN(CC)CC)cc2)cc1", "tgt": "HCT-15", "GI50": "14.5 µM"}
{"compound": "COc1cc2c3c([nH]c2c(OC)c1OC)CCN(Cc1ccccc1)C3", "tgt": "HCT-15", "GI50": "31.9 µM"}
{"compound": "CCCCCCCCCCCCCCCCOP(=O)(O)OP(=O)(O)OCC1OC(n2cnc3c(N)ncnc32)C(O)C1O (configuration not stated)", "tgt": "HCT-15", "GI50": "> 100 µM"}
{"compound": "COc1cc2ccc(=O)oc2cc1O [SCOPOLETIN]", "tgt": "HCT-15", "GI50": "25.1 µM"}
{"compound": "COC1CCCc2c(OC(C)=O)ccc(OC(C)=O)c21 (configuration not stated)", "tgt": "HCT-15", "GI50": "> 100 µM"}
{"compound": "CS(=O)(=O)c1nc(N)nc2nc[nH]c12", "tgt": "HCT-15", "GI50": "> 100 µM"}
{"compound": "CC(C)(O)C1COC2=C1C(=O)c1ccccc1C2=O (configuration not stated)", "tgt": "HCT-15", "GI50": "27.5 µM"}
{"compound": "COc1ccc(C)cc(O)c1=O", "tgt": "HCT-15", "GI50": "> 100 µM"}
{"compound": "Nc1c(C(=O)Nc2ccc([As](=O)(O)O)cc2)cnc2nnnn12", "tgt": "HCT-15", "GI50": "> 100 µM"}
{"compound": "O=c1[nH]nc(Cc2c[nH]c3ccccc23)o1", "tgt": "HCT-15", "GI50": "> 100 µM"}

Ref: ChEMBL document CHEMBL1201862
